# Subject of test: OsSPX4–OsPHR2 (Oryza sativa)
# Sequence (Q10B79 whole entry): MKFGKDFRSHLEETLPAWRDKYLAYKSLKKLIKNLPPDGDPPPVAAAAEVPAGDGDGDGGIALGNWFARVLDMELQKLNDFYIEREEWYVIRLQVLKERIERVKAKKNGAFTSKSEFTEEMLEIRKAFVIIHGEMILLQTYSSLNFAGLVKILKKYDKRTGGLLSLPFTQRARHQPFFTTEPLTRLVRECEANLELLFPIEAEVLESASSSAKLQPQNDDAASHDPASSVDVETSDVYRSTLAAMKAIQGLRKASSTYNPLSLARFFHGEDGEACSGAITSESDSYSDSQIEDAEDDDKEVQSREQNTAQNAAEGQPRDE
# Sequence (Q6Z156 whole entry partner): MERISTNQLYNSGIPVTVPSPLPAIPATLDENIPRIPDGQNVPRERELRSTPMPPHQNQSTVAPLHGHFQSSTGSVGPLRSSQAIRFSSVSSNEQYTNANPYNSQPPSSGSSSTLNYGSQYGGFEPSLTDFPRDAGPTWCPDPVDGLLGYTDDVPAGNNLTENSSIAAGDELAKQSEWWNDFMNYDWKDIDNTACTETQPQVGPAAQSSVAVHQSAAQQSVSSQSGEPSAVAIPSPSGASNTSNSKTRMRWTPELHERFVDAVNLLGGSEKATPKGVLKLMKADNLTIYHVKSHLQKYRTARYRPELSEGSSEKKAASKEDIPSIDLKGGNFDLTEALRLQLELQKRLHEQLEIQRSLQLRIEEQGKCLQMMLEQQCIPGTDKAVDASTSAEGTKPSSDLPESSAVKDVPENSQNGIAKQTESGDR

{"columns": ["Compound", "Kd"],
 "data": [
  ["O=P(O)(O)O[C@@H]1[C@@H](OP(=O)(O)O)[C@H](OP(=O)(O)OP(=O)(O)O)[C@@H](OP(=O)(O)O)[C@H](OP(=O)(O)OP(=O)(O)O)[C@@H]1OP(=O)(O)O [InsP8]", "~3 µM"]
]}
